- Test system: vascular smooth muscle tissue from the rabbit aorta
- ASSAY REMARKS: Rabbit Potassium Depolarized Blood Vessel Test (Test 2)
- Format: cell-based
- RUN PARAMETERS: Oryctolagus cuniculus, 10 min; test compound 10^-6 M, 10 minute exposure, 30 mM potassium chloride, rabbit aorta strips, 37° C.; read-out: Test 2 (% Inhibition) of potassium-induced contraction
So I've got a bunch of compounds here, and I need their inhibition at 1 µM values.
Please answer using the number first and the unit second.

Data request: // returns reported inhibition at 1 µM for input CC1=C(C(=O)OCCBr)C(c2cccc(C(F)(F)F)c2)c2c(n(C)c(=O)n(C)c2=O)N1 (stereo not shown)
Data returned: 41%

Data request: // returns reported inhibition at 1 µM for input CC1=C(C(=O)OCCN(C)Cc2ccccc2)C(c2ccc(C(F)(F)F)cc2)c2c(n(C)c(=O)n(C)c2=O)N1 (stereo not shown)
Data returned: 6%

Data request: // returns reported inhibition at 1 µM for input CC1=C(C(=O)OCCBr)C(c2cccc(Cl)c2)c2c(n(C)c(=O)n(C)c2=O)N1 (stereo not shown)
Data returned: 54%

Data request: // returns reported inhibition at 1 µM for input CC1=C(C(=O)OCCN(C)Cc2ccccc2)C(c2cccc(Cl)c2)c2c(n(C)c(=O)n(C)c2=O)N1 (stereo not shown)
Data returned: 52%

====

- Tested on: spontaneously hypertensive rats
- ASSAY REMARKS: Spontaneously Hypertensive Rat Test (Test 3)
- Format: in vivo
- RUN PARAMETERS: 100 mg/kg body weight, four male spontaneously hypertensive rats, indirect tail-cuff method
So I've got a bunch of compounds here, and I need their Test 3 (mmHg, 100 mpk): average of the peak decrease in systolic blood pressure values.
The response must be a number in mmHg with no trailing unit.

Data request: Item: CC1=C(C(=O)OCCN(C)Cc2ccccc2)C(c2ccccc2Cl)c2c(n(C)c(=O)n(C)c2=O)N1 (stereo not shown) Test system: spontaneously hypertensive rats Read-out: Test 3 (mmHg, 100 mpk): average of the peak decrease in systolic blood pressure Value: ?
Data returned: -40

Data request: Item: CC1=C(C(=O)OCCN(C)Cc2ccccc2)C(c2cccc(C)c2)c2c(n(C)c(=O)n(C)c2=O)N1 (stereo not shown) Test system: spontaneously hypertensive rats Read-out: Test 3 (mmHg, 100 mpk): average of the peak decrease in systolic blood pressure Value: ?
Data returned: -12

Data request: Item: CC1=C(C(=O)OCCN(C)Cc2ccccc2)C(c2ccco2)c2c(n(C)c(=O)n(C)c2=O)N1.Cl.O (single isomer, unassigned) Test system: spontaneously hypertensive rats Read-out: Test 3 (mmHg, 100 mpk): average of the peak decrease in systolic blood pressure Value: ?
Data returned: -22

Data request: Item: COC(=O)C1=C(C)Nc2c(c(=O)n(C)c(=O)n2C)C1c1cccc([N+](=O)[O-])c1 (stereo not shown) Test system: spontaneously hypertensive rats Read-out: Test 3 (mmHg, 100 mpk): average of the peak decrease in systolic blood pressure Value: ?
Data returned: -11

====

- TARGET OF ASSAY: calcium channel antagonist receptors (rabbit heart) (Oryctolagus cuniculus, UniProt P15381)
- Sequence (P15381 whole entry, other chains not shown): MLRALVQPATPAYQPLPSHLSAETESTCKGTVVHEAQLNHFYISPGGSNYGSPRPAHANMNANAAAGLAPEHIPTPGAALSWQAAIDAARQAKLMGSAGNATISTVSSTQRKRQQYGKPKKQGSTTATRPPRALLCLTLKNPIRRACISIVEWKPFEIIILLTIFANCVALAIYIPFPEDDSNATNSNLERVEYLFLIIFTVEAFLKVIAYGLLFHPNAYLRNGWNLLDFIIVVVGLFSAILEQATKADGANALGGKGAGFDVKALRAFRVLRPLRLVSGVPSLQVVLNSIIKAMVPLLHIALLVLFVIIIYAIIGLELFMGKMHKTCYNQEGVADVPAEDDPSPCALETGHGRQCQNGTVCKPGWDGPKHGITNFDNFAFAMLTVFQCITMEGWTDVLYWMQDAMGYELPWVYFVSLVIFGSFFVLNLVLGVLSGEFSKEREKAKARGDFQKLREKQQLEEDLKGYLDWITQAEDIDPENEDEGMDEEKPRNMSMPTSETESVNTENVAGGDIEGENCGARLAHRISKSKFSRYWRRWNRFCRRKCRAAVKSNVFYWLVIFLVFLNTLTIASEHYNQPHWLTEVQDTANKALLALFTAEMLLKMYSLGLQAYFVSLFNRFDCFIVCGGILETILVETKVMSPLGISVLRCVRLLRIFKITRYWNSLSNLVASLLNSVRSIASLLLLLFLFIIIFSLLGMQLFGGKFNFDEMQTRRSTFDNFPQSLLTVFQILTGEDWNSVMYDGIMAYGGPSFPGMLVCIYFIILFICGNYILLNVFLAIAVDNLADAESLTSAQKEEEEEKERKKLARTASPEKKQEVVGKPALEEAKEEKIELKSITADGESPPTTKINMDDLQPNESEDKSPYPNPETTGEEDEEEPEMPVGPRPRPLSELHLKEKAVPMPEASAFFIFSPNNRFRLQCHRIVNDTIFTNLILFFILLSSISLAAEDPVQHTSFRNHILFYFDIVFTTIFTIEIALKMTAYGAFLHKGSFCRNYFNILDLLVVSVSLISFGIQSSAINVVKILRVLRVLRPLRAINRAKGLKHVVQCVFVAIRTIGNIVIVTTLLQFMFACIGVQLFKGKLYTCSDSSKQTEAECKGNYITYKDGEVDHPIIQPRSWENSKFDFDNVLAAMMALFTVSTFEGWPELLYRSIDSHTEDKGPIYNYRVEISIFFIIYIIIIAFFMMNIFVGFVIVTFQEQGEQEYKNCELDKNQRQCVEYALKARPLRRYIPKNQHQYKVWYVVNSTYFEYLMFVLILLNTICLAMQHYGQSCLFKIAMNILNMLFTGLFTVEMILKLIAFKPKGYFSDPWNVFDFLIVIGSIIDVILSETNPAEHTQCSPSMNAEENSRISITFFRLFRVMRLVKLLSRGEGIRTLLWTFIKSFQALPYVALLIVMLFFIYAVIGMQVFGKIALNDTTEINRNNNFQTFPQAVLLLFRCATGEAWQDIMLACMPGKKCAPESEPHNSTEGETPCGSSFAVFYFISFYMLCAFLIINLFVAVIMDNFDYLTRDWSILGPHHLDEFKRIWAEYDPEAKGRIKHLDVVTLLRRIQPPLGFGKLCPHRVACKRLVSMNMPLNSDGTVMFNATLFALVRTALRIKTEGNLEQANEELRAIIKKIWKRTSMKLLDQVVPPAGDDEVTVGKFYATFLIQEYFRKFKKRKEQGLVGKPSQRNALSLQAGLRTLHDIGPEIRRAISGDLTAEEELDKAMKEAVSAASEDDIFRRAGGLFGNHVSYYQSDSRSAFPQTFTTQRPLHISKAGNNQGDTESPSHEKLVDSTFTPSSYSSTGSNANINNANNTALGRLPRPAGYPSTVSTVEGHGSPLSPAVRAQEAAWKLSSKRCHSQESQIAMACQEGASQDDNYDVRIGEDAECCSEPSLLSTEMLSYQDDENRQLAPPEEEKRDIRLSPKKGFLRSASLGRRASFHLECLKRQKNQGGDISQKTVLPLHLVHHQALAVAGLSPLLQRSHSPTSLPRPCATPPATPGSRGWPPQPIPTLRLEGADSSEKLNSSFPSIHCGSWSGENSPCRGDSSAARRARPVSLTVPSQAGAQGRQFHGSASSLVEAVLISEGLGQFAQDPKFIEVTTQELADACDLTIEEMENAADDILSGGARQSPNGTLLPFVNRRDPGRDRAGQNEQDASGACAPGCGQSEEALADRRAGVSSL
- Sequence (P13806 27-960 partner limits assumed, other chains not shown): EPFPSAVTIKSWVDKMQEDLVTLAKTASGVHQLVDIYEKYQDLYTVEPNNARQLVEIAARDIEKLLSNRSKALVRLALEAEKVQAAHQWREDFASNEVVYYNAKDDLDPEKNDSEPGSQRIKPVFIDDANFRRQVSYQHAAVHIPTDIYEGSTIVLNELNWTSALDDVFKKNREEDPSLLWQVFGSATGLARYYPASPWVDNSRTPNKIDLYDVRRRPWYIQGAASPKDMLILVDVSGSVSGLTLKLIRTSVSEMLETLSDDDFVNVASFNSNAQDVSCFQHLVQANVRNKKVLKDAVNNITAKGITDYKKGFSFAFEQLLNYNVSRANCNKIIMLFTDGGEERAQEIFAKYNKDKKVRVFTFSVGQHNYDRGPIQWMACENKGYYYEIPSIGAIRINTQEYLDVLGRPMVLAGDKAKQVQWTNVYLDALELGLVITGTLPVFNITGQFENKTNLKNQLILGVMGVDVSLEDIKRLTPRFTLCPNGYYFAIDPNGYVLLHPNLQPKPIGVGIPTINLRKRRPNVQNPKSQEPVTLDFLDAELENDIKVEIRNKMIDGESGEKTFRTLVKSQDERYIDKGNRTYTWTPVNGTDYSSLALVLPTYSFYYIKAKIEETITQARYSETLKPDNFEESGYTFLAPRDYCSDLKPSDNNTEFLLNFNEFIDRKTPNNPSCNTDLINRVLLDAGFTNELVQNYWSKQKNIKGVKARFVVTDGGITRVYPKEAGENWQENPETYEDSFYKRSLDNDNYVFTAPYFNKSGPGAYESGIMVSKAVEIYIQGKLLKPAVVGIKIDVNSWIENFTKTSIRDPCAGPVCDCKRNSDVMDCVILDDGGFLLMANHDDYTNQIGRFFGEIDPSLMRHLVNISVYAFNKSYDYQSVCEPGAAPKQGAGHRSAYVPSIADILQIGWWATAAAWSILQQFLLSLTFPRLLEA
- Sequence (P13806 961-1106 partner limits assumed, other chains not shown): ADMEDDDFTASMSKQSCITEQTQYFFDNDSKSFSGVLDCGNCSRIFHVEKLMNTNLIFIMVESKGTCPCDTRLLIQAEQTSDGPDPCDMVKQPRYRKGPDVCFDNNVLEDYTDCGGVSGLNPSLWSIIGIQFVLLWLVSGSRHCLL
- ASSAY REMARKS: Nitrendipine Binding Assay (Test 1)
- RUN PARAMETERS: 3H-nitrendipine (0.05-0.50 nM), rabbit heart membrane, 90 min at 4° C., pH 7.4; read-out: Test 1 (IC50): concentration required to achieve 50% displacement of specifically-bound nitrendipine
OUTCOME MEASURE: IC50 (µM)
The response must be a number in µM with no trailing unit.

Data request: // returns reported IC50 for input CC1=C(C(=O)OCCN(C)Cc2ccccc2)C(c2cc(Cl)cc(Cl)c2)c2c(n(C)c(=O)n(C)c2=O)N1 (stereo not shown)
Data returned: 2.3

Data request: // returns reported IC50 for input COc1cccc(C2C(C(=O)OCCN(C)Cc3ccccc3)=C(C)Nc3c2c(=O)n(C)c(=O)n3C)c1 (stereo not shown)
Data returned: 2.8

Data request: // returns reported IC50 for input CC1=C(C(=O)OCCN(C)Cc2ccccc2)C(c2cccc(C(F)(F)F)c2)c2c(n(C)c(=O)n(C)c2=O)N1 (stereo not shown)
Data returned: 3.4

====

- Tested on: vascular smooth muscle tissue from the rabbit aorta
- ASSAY REMARKS: Rabbit Potassium Depolarized Blood Vessel Test (Test 2)
- Format: cell-based
- RUN PARAMETERS: Oryctolagus cuniculus, 10 min; test compound 10^-6 M, 10 minute exposure, 30 mM potassium chloride, rabbit aorta strips, 37° C.; read-out: Test 2 (% Inhibition) of potassium-induced contraction
Cut-off 30% on inhibition at 1 µM, inclusive. At or above means class 1; below means class 0.

Data request: Entry CC1=C(C(=O)OCCN(C)Cc2ccccc2)C(c2cccc([N+](=O)[O-])c2)c2c(n(C)c(=O)n(C)c2=O)N1 (stereo not drawn) : is its inhibition at 1 µM no less than 30%?
Data returned: class 1

Data request: Entry CC1=C(C(=O)OCCN(C)Cc2ccccc2)C(c2ccccc2)c2c(n(C)c(=O)n(C)c2=O)N1 (stereo not drawn) : is its inhibition at 1 µM no less than 30%?
Data returned: class 0

Data request: Entry CC1=C(C(=O)OCCN(C)Cc2ccccc2)C(c2cccc(C(F)(F)F)c2)c2c(n(C)c(=O)n(C)c2=O)N1 (stereo not drawn) : is its inhibition at 1 µM no less than 30%?
Data returned: class 1

Data request: Entry CC1=C(C(=O)OCCN(C)Cc2ccccc2)C(c2ccccc2Cl)c2c(n(C)c(=O)n(C)c2=O)N1 (stereo not drawn) : is its inhibition at 1 µM no less than 30%?
Data returned: class 1

Data request: Entry COC(=O)C1=C(C)Nc2c(c(=O)n(C)c(=O)n2C)C1c1cccc(Cl)c1 (stereo not drawn) : is its inhibition at 1 µM no less than 30%?
Data returned: class 0

Data request: Entry CC1=C(C(=O)OCCN(C)Cc2ccccc2)C(c2cccc(C#N)c2)c2c(n(C)c(=O)n(C)c2=O)N1 (stereo not drawn) : is its inhibition at 1 µM no less than 30%?
Data returned: class 0

Data request: Entry CC1=C(C(=O)OCCBr)C(c2cccc([N+](=O)[O-])c2)c2c(n(C)c(=O)n(C)c2=O)N1 (stereo not drawn) : is its inhibition at 1 µM no less than 30%?
Data returned: class 0

Data request: Entry CC1=C(C(=O)OCCN(C)Cc2ccccc2)C(c2cc(Cl)cc(Cl)c2)c2c(n(C)c(=O)n(C)c2=O)N1 (stereo not drawn) : is its inhibition at 1 µM no less than 30%?
Data returned: class 0

Data request: Entry CC1=C(C(=O)OCCBr)C(c2ccccc2Cl)c2c(n(C)c(=O)n(C)c2=O)N1 (stereo not drawn) : is its inhibition at 1 µM no less than 30%?
Data returned: class 0

Data request: Entry CC1=C(C(=O)OCCN(C)Cc2ccccc2)C(c2cccc(F)c2)c2c(n(C)c(=O)n(C)c2=O)N1 (stereo not drawn) : is its inhibition at 1 µM no less than 30%?
Data returned: class 1

Data request: Entry CC1=C(C(=O)OCCCBr)C(c2cccc(Cl)c2)c2c(n(C)c(=O)n(C)c2=O)N1 (stereo not drawn) : is its inhibition at 1 µM no less than 30%?
Data returned: class 1

Data request: Entry CC1=C(C(=O)OCCN(C)Cc2ccccc2)C(c2ccccc2[N+](=O)[O-])c2c(n(C)c(=O)n(C)c2=O)N1 (stereo not drawn) : is its inhibition at 1 µM no less than 30%?
Data returned: class 0
